test: chemical genetic growth profiling, strain panel (AID 1159580);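 also: tested at 20 µM; growth read once vehicle control cultures reached saturation at 30 °C; 1 = growth at the plate median or of vehicle wells; lower values mean less growth of the strain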
details: S. cerevisiae deletion strains, growth OD, locus YOR069W, strain VPS5, active compounds read low
Among all 5,500 compounds or so, about 2,000 (36%) were called active. About 18% were inconclusive and are not listed. Some of the results follow.
Below, each of the molecules is paired with its reported normalized growth value.
Form: value (number only, do not type unit).

molecule	normalized growth
CN(C)CCCN1c2ccccc2CCc2ccc(Cl)cc21	0.984

Continue with the molecule presented below.
What value of measured normalized growth is listed for CN(C)CCCN1c2ccccc2Sc2ccccc21 ?
0.995

###

test: chemical genetic growth profiling, strain panel (AID 1159580);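 also: tested at 20 µM; growth read once vehicle control cultures reached saturation at 30 °C; 1 = growth at the plate median or of vehicle wells; lower values mean less growth of the strain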
details: S. cerevisiae deletion strains, growth OD, locus YGL227W, strain vid30, active compounds read low
The whole screen tested about 5,500 compounds, of which about 2,000 (36%) were called active. Inconclusive results (about 18%) are left out. Some of the results follow.
Reported normalized growth values are given for each entry in this list.
// keep it numeric: no unit symbol after the value

                                   molecule  observed_measurement
0  CCN1CCN(C(=O)NC(C(=O)N[C@@H]2C(=O)N3[C@@H]2SC(C)(C)[C@@H]3C(=O)O)c2ccccc2)C(=O)C1=O (stereo partly specified)                 0.989
1  CC(C)c1ccc2c(c1)CCC1C(C)(C(N)=O)CCCC21C (stereo unspecified)                 0.965
2       CCN(CC)CCOCCOC(=O)C1(c2ccccc2)CCCC1                 0.981

Recorded normalized growth for CN(C)[C@@H]1C(=O)C(C(=O)NCN2CCCC2)=C(O)[C@@]2(O)C(=O)C3=C(O)c4c(O)cccc4[C@@](C)(O)[C@H]3C[C@@H]12 , please?
1.03

For the molecule O=C(NCO)c1cccnc1 , what normalized growth is on record?
1

# normalized growth lookup, item CC(C)CCCC(C)[C@H]1CCC2C3CC=C4C[C@@H](O)CC[C@]4(C)C3CC[C@@]21C (stereo partly specified)
0.99

Would you mind telling me what normalized growth value was observed for O=P1(N(CCCl)CCCl)NCCCO1 (stereo unspecified) ?
0.992

// lookup normalized growth for CC(C)CCCC(C)C1CCC2C3C[C@@H](O)[C@@]4(O)C[C@@H](O)CC[C@]4(C)C3CC[C@]12C (stereo partly specified)
1
